condition notes: 303.15 K; 101 kPa; Liquid
Numbers after ± are expanded uncertainties.
measure: mass density
Could you give the number and then its unit, please?

Previously resolved entries follow.
CCCCCCCCCCO [decan-1-ol]: 822.85 ± 0.58 kg/m3
BrC(Br)C(Br)Br [1,1,2,2-tetrabromoethane]: 2939.86 ± 3.5 kg/m3
CCCCCCO [hexan-1-ol]: 811.73 ± 0.59 kg/m3
CCCCCO [pentan-1-ol]: 807.6 ± 0.59 kg/m3
CCCCCCCCO [octan-1-ol]: 818.09 ± 0.58 kg/m3

Next:
Qu. Output mass density of CCCCCCCO [heptan-1-ol]
Ans. 815.41 ± 0.58 kg/m3

Data credit: the NIST ThermoML archive (doi:10.1016/j.jct.2005.11.012)
